Answer each item with its documented INHIBITION.
# Tested on: Plasmodium berghei
# METHOD: Screen against P. berghei liver stage (PbLuc), transformed with Luciferase, at 10uM
# Type: functional, HepG2
# PARTICULARS: tested at 10 uM
The campaign covered roughly 69,000 compounds. About 8,600 (12%) showed an effect of 50% or more. Only a selection was taken, and strong results are over-represented in it overall.
The answer consists of two parts: a number and, after it, its unit.

Please review the following examples before continuing.
COc1cccc(C(O)C(=O)N(C)CCc2ccccn2)c1 (centres undefined) : 47.7%
Cn1cc(C(=O)N2CCCC(C(=O)CCc3ccccc3)C2)cn1 (centres undefined) : 10.7%

Hi! Can you tell me INHIBITION for each of these molecules?
1. O=C1CC2(CCN(CC3CCOC3)CC2)CN1Cc1cc(F)cc(F)c1 (centres undefined)
2. CSC(C)(C)CNC(=O)NCc1cccc(-n2ccnc2)c1
3. CCN(Cc1ccoc1)C(=O)C1CN(C(=O)OC(C)(C)C)C1
4. CN(C)C(CNC(=O)CCNC(=O)OCC(F)(F)F)c1ccsc1 (centres undefined)
5. CCc1nc(CN(C)C2CCN(CCn3cccn3)C2)no1 (centres undefined)

["46.8%", "17.2%", "-26.7%", "61.9%", "14.1%"]

====

# Test system: Plasmodium berghei
# METHOD: Screen against P. berghei liver stage (PbLuc), transformed with Luciferase, at 10uM
# Format: functional, HepG2
# PARTICULARS: tested at 10 uM
The whole screen tested about 69,000 compounds, of which about 8,600 (12%) showed an effect of 50% or more. This is one part of a sample in which strong results are shown more often than they occur.
Mark true for reported INHIBITION of 20% or greater; mark false for anything smaller.

CCOc1nnc(CN(CC)CC(=O)NC(C)(C)C)s1 : true
CCc1cnc(N2CC[C@H]3[C@@H]2CCC(=O)N3c2cccnc2)nc1 : false
COc1cc(NCc2ccc(Cl)cc2)c(-c2nn[nH]n2)cc1OC : true
Cc1noc(C)c1CN1CCc2ncnc(-c3cccnc3)c2CC1 : true
CN1CCCN(C(=O)c2nc3c(n2C)CCN(c2ncccn2)C3)CC1 : true

Read the next record carefully.
# check: INHIBITION of Cc1noc(C)c1CN1CCc2ncnc(-c3ccc(F)cc3)c2CC1 is greater than or equal to 20%
true

====

# System: Plasmodium berghei
# METHOD: Screen against P. berghei liver stage (PbLuc), transformed with Luciferase, at 10uM
# Format: functional, HepG2
# PARTICULARS: tested at 10 uM
About 8,600 (12%) of roughly 69,000 compounds showed an effect of 50% or more. The entries come from a sample that favours strong results as a whole.
Entries are grouped by INHIBITION into these classes: c1: < 40%; c2: ≥ 40% and < 50%; c3: ≥ 50%

Consider the following illustrative entries.
COc1ccc(CNC(C)c2ccccc2Cl)c(OC)c1OC (centres undefined) : c2
Cc1cccc(OCCN2CCCC(c3cc(C(N)=O)[nH]n3)C2)c1 (centres undefined) : c1
COCC1c2nnn(CC3CC3)c2CCN1C(=O)c1sccc1C (centres undefined) : c3
COCC1c2nnn(CC3CC3)c2CCN1C(=O)c1cccn1C (centres undefined) : c1

Where would Cc1ccc(CN2CC[C@@H]3[C@@H](CO[C@H]3CN(C)C)C2)o1 land among the classes by reported INHIBITION?
c3

Where would CC(C)CSCCN1CCN(S(C)(=O)=O)CC1 land among the classes by reported INHIBITION?
c2

Where would COc1ccc(CNC(C)c2cccc(Cl)c2)c(OC)c1OC (centres undefined) land among the classes by reported INHIBITION?
c2

Where would CCOc1cccc(C(C)NCc2ccc(OC)c(OC)c2OC)c1 (centres undefined) land among the classes by reported INHIBITION?
c1

====

# Tested on: Plasmodium berghei
# METHOD: Screen against P. berghei liver stage (PbLuc), transformed with Luciferase, at 10uM
# Assay type: functional, HepG2
# PARTICULARS: tested at 10 uM
Screen size: about 69,000 compounds; about 8,600 (12%) showed an effect of 50% or more. The full list was thinned out, with strong results kept by preference.
Answer each item with its documented INHIBITION.
Give bare numbers, in %.

Please review the following examples before continuing.
NC(=O)COc1ccc(C2NC(=O)CN2Cc2ccc(Br)cc2)cc1 (stereo not drawn) : 15.9
COCCNC(=O)[C@H]1C[C@@H]2CCN(c3ccncn3)C[C@H]2O1 : 7.53

The recorded INHIBITION for entry COCCNC(=O)Cn1c(-c2ccc(Cl)cc2)nc(C)c(CCO)c1=O equals 2.29

====

# Test system: Plasmodium berghei
# METHOD: Screen against P. berghei liver stage (PbLuc), transformed with Luciferase, at 10uM
# Format: functional, HepG2
# PARTICULARS: tested at 10 uM
Hit rate of the full screen: of about 69,000 compounds, about 8,600 (12%) showed an effect of 50% or more. The list comes from a sample in which strong results are over-represented; it also holds close analogues and randomly drawn compounds.
PARAMETER: INHIBITION (%)
Numbers only, in %.

Please review the following examples before continuing.
O=c1c(-c2ccnc(N3CCCC[C@@H]3CO)n2)cnc2sccn12 : 35.2
Cc1nc(N2CCCC2)nc2c1CCN(C(=O)C1CCC1)CC2 : -21.1
OC[C@H]1CCCN1c1nccc(-c2cncnc2C2CCCCC2)n1 : 64.9
O=c1c(-c2ccnc(N3CCC[C@H]3CO)n2)cnc2sccn12 : -4.82
COCCCNC(=O)Nc1c(C)cccc1C(C)C : -19.1

Hi! Can you tell me INHIBITION for each of these compounds?
1. Cc1nn(C)c(N2CCOCC2)c1CNCc1ccc(C(C)O)cc1 (centres undefined)
2. CCN(CC)CCCNC(=O)Nc1c(C)cccc1C(C)C
3. OC[C@H]1CCCN1c1nccc(-c2c[nH]nc2C2CCCCC2)n1
4. CC1=N[C@@]2(CC[C@@H]3CN(S(=O)(=O)CC(C)C)C[C@@H]32)C(=O)N1CC(C)C

1. 43.2
2. 7.3
3. 54.5
4. 40.4

====

# System: Plasmodium berghei
# METHOD: Screen against P. berghei liver stage (PbLuc), transformed with Luciferase, at 10uM
# Assay type: functional, HepG2
# PARTICULARS: tested at 10 uM
The whole screen tested about 69,000 compounds, of which about 8,600 (12%) showed an effect of 50% or more. The list comes from a sample in which strong results are over-represented; it also holds close analogues and randomly drawn compounds.
Labelling field: enter TRUE if recorded INHIBITION is less than 20%. Enter FALSE if it equals or exceeds that cut-off.

Cc1cnc(CN2CCC(N(C)Cc3nnc(C4CC4)n3C)C2)cn1 (centres undefined) : FALSE
CC(C)n1c2ccccc2c2c1cc(C(=O)O)n2C(=O)N(C)C : FALSE
Cc1ccc(CCN2CCC(N(C)Cc3noc(C4CC4)n3)C2)cc1 (centres undefined) : FALSE
Cc1cc(C)n(CCN2CCC(N(C)Cc3nnc(C)n3C)C2)n1 (centres undefined) : FALSE
CCn1nc(C)c(CN2CCCC(c3ccc(C(=O)O)cc3)C2)c1C (centres undefined) : FALSE

Could you please tell me whether INHIBITION recorded for COCC1CN(C(=O)COc2ccc(C)cc2)Cc2cn(C)nc21 (centres undefined) is less than 20%?
TRUE

Could you please tell me whether INHIBITION recorded for NC(=O)c1cccc(OCC(=O)N2CCCC(n3ccnc3)C2)c1 (centres undefined) is less than 20%?
FALSE

Could you please tell me whether INHIBITION recorded for CC(C)c1cncnc1N1CC[C@H](N2CCOCC2)[C@H](CCCO)C1 is less than 20%?
FALSE

Could you please tell me whether INHIBITION recorded for CC(C)n1c2ccccc2c2c1cc(C(=O)N(C)C)n2C is less than 20%?
FALSE

Could you please tell me whether INHIBITION recorded for CC(=O)N1CCC(C(=O)NC(C)c2cccc(OC(F)F)c2)CC1 (centres undefined) is less than 20%?
FALSE

Could you please tell me whether INHIBITION recorded for CNc1nc(C2CCCCN2C(=O)COC)nc2c1CN(C)CC2 (centres undefined) is less than 20%?
FALSE

Could you please tell me whether INHIBITION recorded for Cn1c(NCC(O)c2ccccc2F)c(C#N)c(=O)n(C)c1=O (centres undefined) is less than 20%?
TRUE

Could you please tell me whether INHIBITION recorded for NC(=O)Nc1cccc(C(=O)N(Cc2ccncc2)C2CC2)c1 is less than 20%?
FALSE

Could you please tell me whether INHIBITION recorded for CC(C)NC(=O)CN(C)C(=O)c1c(Cl)c2ccccc2n1C is less than 20%?
TRUE

Could you please tell me whether INHIBITION recorded for Cc1ccc(S(=O)(=O)N[C@H](CO)C(C)C)cc1N(C)C is less than 20%?
TRUE

Could you please tell me whether INHIBITION recorded for Cc1cnc(CN2CCC(N(C)Cc3nnc(C)n3C)C2)cn1 (centres undefined) is less than 20%?
FALSE

Could you please tell me whether INHIBITION recorded for CCc1nc(CN(C(C)=O)C2CCN(Cc3cnc(C)cn3)C2)no1 (centres undefined) is less than 20%?
TRUE

Could you please tell me whether INHIBITION recorded for Cc1ccc(CN(C(=O)c2cccc(NC(N)=O)c2)C2CC2)o1 is less than 20%?
TRUE

Could you please tell me whether INHIBITION recorded for COCCNC(=O)c1cc2c(c3ccccc3n2C)n1C(=O)N(C)C is less than 20%?
FALSE

Could you please tell me whether INHIBITION recorded for CC(C)n1c2ccccc2c2c1cc(C(=O)N(C)C)n2S(C)(=O)=O is less than 20%?
FALSE

Could you please tell me whether INHIBITION recorded for CC(C)c1nc(CN2CCN(C(=O)CN3CCOCC3)CC2)no1 is less than 20%?
TRUE

Could you please tell me whether INHIBITION recorded for CCCN(Cc1nc(-c2ccoc2)oc1C)CC1CCCO1 (centres undefined) is less than 20%?
TRUE

Could you please tell me whether INHIBITION recorded for Cc1nc(CN2CCN(C(=O)c3sccc3C3CC3)CC2)oc1C is less than 20%?
TRUE

Could you please tell me whether INHIBITION recorded for CC(C)n1c2ccccc2c2c1cc(C(=O)NC1CC1)n2C(=O)N(C)C is less than 20%?
FALSE

Could you please tell me whether INHIBITION recorded for OCCc1ncnn1Cc1cccc(Cl)c1 is less than 20%?
TRUE

Hey, just so you know, these numbers are from ChEMBL document CHEMBL4513216.
